Data provenance: the supplement of paper PMC13380429

- System: Caco-2
- assay notes: cell viability relative to DMSO; higher = less toxic
- settings: 72 h; 1 nM
quantity measured: cell viability (%)

1. O=[N+]([O-])c1nccn1CC(O)CN1CCCCC1 (stereo not given); 94.1
2. CO[C@H]1[C@H](O)[C@@H](O)[C@@H](O)[C@H](O)[C@@H]1O; 107
3. CCO[C@@H](Cc1ccc(OCCc2ccc(OS(C)(=O)=O)cc2)cc1)C(=O)O; 101
4. O=C(O)COc1nn(Cc2ccccc2)c2ccccc12; 109
5. CCCCCCCCCCCCCCCCCCOP(=O)([O-])OC1CC[N+](C)(C)CC1; 96.4

* * *

We begin with a simple list: items and their reported cell viability.
- System: U2OS
- assay notes: cell viability relative to DMSO; higher = less toxic
- settings: 72 h; 1000 nM
Structures can show the parent of a compound that is named as a salt.
quantity measured: cell viability (%)

1. Cc1ccc(-c2nn(C(C)(C)CNC(=O)c3ncccc3C)c3ncnc(N)c23)cc1 [WEHI-345-analog]; 104
2. CCC(=O)NS(=O)(=O)c1ccc(-c2c(-c3ccccc3)noc2C)cc1 [parecoxib]; 94.1
3. C=C[C@@H]1C[C@]1(NC(=O)[C@@H]1C[C@@H](Oc2ncc(OC)c3ccc(Cl)cc23)CN1C(=O)[C@@H](NC(=O)OC(C)(C)C)C(C)(C)C)C(=O)NS(=O)(=O)C1CC1 [asunaprevir]; 96.8
4. N#Cc1cc(F)cc(-c2nc(-c3ccc(F)cn3)no2)c1 [AZD9272]; 104
5. O=C(/C=C/c1ccccc1)NC(NC(=S)Nc1cccc2cccnc12)C(Cl)(Cl)Cl (configuration not stated) [salubrinal]; 102
6. COc1cccc(-c2cc(F)ccc2[C@H]2Cc3nc(N)nc(C)c3C(=O)N2)n1 [NVP-HSP990]; 2.5
7. CNC(=O)[C@H](Cc1ccccc1)NC(=O)[C@H](CC(C)C)[C@H](CSc1cccs1)C(=O)NO [batimastat]; 98.4
8. CC[C@H](NC(=O)c1c(C)c(-c2ccccc2)nc2ccccc12)c1ccccc1; 98.7
9. CC(C)C[C@@H](NC(=O)[C@H](C)NC(=O)CNC(=O)[C@@H](NC=O)C(C)C)C(=O)N[C@@H](C)C(=O)N[C@@H](C(=O)N[C@H](C(=O)N[C@@H](C(=O)N[C@@H](Cc1c[nH]c2ccccc12)C(=O)N[C@H](CC(C)C)C(=O)N[C@@H](Cc1c[nH]c2ccccc12)C(=O)N[C@H](CC(C)C)C(=O)N[C@@H](Cc1c[nH]c2ccccc12)C(=O)N[C@H](CC(C)C)C(=O)N[C@@H](Cc1c[nH]c2ccccc12)C(=O)NCCO)C(C)C)C(C)C)C(C)C [gramicidin]; 97.4
10. Cc1ccc(-c2ncc[nH]2)cc1NC(=O)c1ccc(OCc2ccccn2)cc1; 97.1
11. CCCCN1CCCCC1C(=O)Nc1c(C)cccc1C (configuration not stated) [bupivacaine]; 103
12. CCC(=O)O[C@]1(C(=O)CO)CC[C@H]2[C@@H]3CCC4=CC(=O)CC[C@]4(C)[C@H]3CC[C@@]21C [CB-03-01]; 102
13. O=C(O)CCNc1cc(N2CCc3ccccc3CC2)nc(-c2ccccn2)n1 [GSK-J1]; 98.6
14. O=C(Oc1ccc(Br)cc1)N1CCN2CCC1CC2; 99
15. CC(C)(CO)Cc1cc(C(C)(C)C)c(O)c(C(C)(C)C)c1 [CGP-7930]; 101
16. CC1(C)S[C@@H]2[C@H](N3C(=O)[C@@H](c4ccccc4)NC3(C)C)C(=O)N2[C@H]1C(=O)O [hetacillin]; 95
17. Cc1ccccc1N(C)C(=O)c1ccc([S+]([O-])c2nccs2)c([N+](=O)[O-])c1 (configuration not stated); 41.7
18. CCOC(=O)c1c(CSc2ccccc2)n(C)c2cc(Br)c(O)c(CN(C)C)c12 [arbidol]; 92.4
19. COc1cc(OC)nc(O[C@H](C(=O)O)C(OC)(c2ccccc2)c2ccccc2)n1 [darusentan]; 96.9
20. CNC(=O)c1c(C)oc2cc(Oc3ncnc4cc(OC)c(OC)cc34)ccc12 [fruquintinib]; 102
21. COC(=O)CCc1ccc(OCC(O)CNC(C)C)cc1 (configuration not stated) [esmolol]; 94.1
22. C[C@]12CCC(=O)C=C1CC[C@@H]1[C@@H]2C(=O)C[C@]2(C)C(=O)CC[C@@H]12 [adrenosterone]; 97.4
23. CC(=O)c1cc([N+](=O)[O-])c(Sc2ccc(F)cc2F)s1; 101
24. C[C@]12CCC(=O)C=C1C=C[C@@H]1[C@@H]2CC[C@@]2(C)[C@H]1CC[C@@]2(O)CCC(=O)O [potassium-canrenoate]; 100
25. Cc1ccc(Oc2ccccc2-c2csc(N=C3NCCCN3)n2)c(C)c1 [abafungin]; 96.7
26. CC(C)OC(=O)N1CCC(Oc2ncnc3c2cnn3-c2ccc(S(C)(=O)=O)cc2F)CC1 [APD668]; 106
27. COc1ccc([C@]2(C#N)CC[C@@H](C(=O)O)CC2)cc1OC1CCCC1 [cilomilast]; 100
28. Oc1ccc(C(O)CNCCCCCCNCC(O)c2ccc(O)c(O)c2)cc1O (configuration not stated) [hexoprenaline]; 102
29. Clc1ccc(C(c2ccccc2Cl)C(Cl)Cl)cc1 (configuration not stated) [mitotane]; 97.7
30. O=[N+]([O-])O[C@@H]1CO[C@H]2[C@@H]1OC[C@@H]2O [isosorbide-mononitrate]; 96.7
31. C=CCN1CC[C@]23c4c5ccc(O)c4O[C@H]2C(=O)CC[C@@]3(O)[C@H]1C5 [NALOXONE HYDROCHLORIDE]; 103
32. CC1(C)O[C@@H]2[C@@H](CO[C@@]3(COS(N)(=O)=O)OC(C)(C)O[C@@H]23)O1 [topiramate]; 105
